All values here come from a melting point compilation (Tetko et al.; mined from patent text by program, amines drawn as free bases though some values may be those of a salt).

Each entry below lists one item and its recorded melting point value.

CN(C)C(=S)Nc1ccc(NNC=O)cc1 has a reported melting point of 187 to 189 °C

The recorded melting point for entry CNC(=S)C1=CC(CF)(CF)Oc2ccc(C(F)(F)C(F)(F)C(F)(F)F)cc21 equals 125 to 126 °C

Please fill in: melting point reported for O=Cc1cccc2oc3c(c12)CCCC3 = 55 to 57 °C

So, CC(C)Nc1nc2cc(Cl)c(Cl)cc2[nH]1 ? Its melting point was 218 to 220 °C

So for Cc1csc(NC(=O)c2ccc(CN3CCN(c4nc(C)cs4)C3=O)cc2)n1 , the logged melting point turned out to be 197 to 198 °C

Reported melting point ( COC(=O)c1cc(Cl)ccc1NS(=O)(=O)c1ccc(C)cc1 ) = 112 to 114 °C

Lab note: measured melting point of N#Cc1cc2c(cc1F)OCC21C(=O)N(Cc2ncccc2C(F)(F)F)c2ccccc21 (stereo not drawn) was 209 to 211 °C

Noted for O=C1NCC(=O)c2c(ncn2C2OC(COC(=O)c3ccccc3)C(OC(=O)c3ccccc3)C2OC(=O)c2ccccc2)N1 (stereo not drawn) : its melting point reads 239 °C
